B1: OAS1 (parent)
chain: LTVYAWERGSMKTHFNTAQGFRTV

Variants of: B1
Assay: protein stability index of a GFP-peptide fusion (GPS, HEK-293T) (PSI 1-6); higher = more stable;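 note: lentivirally expressed fusions sorted by FACS into six bins by GFP to DsRed ratio, PSI derived from sequencing read proportions per bin multiplied by bin number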
Details: c terminus: a fixed tail appended
readout: protein stability index

Exercise: Respond only with protein stability index recorded for `V3W`
Solution: 2.92

Exercise: For the variant `R8L` , give its reported protein stability index.
Solution: 3.07

Exercise: Give protein stability index for the following variant: `R22G`
Solution: 1.45

Exercise: In one line, give reported protein stability index of the entry `T2I` .
Solution: 2.45

Exercise: Specify reported protein stability index for the variant shown: `R22E`
Solution: 2.82

Exercise: Dear colleague, please send me the reported protein stability index for `R22F` when you can.
Solution: 1.87

Exercise: Look up protein stability index of `G9Y` and report it.
Solution: 2.93

Exercise: Input `V24N` , output reported protein stability index.
Solution: 2.84

Exercise: Give the measured protein stability index for `L1I`
Solution: 1.71

Exercise: For the variant `R8V` , give its measured protein stability index value.
Solution: 2.77

---
Exercise: Write down protein stability index measured for item `R22A`
Solution: 3.1

Exercise: For the variant `W6Q` , give its reported protein stability index.
Solution: 1.66

Exercise: Assign protein stability index to the following record: `F15D`
Solution: 2.47
